Target: T1, Human EphA2 (ephrin receptor A2) (human, UniProt P29317 24-976)
T1 construct: Endogenous protein in frozen human tumor tissue and tumor adjacent tissue, not a recombinant construct
T1 sequence (P29317 24-976 limits assumed): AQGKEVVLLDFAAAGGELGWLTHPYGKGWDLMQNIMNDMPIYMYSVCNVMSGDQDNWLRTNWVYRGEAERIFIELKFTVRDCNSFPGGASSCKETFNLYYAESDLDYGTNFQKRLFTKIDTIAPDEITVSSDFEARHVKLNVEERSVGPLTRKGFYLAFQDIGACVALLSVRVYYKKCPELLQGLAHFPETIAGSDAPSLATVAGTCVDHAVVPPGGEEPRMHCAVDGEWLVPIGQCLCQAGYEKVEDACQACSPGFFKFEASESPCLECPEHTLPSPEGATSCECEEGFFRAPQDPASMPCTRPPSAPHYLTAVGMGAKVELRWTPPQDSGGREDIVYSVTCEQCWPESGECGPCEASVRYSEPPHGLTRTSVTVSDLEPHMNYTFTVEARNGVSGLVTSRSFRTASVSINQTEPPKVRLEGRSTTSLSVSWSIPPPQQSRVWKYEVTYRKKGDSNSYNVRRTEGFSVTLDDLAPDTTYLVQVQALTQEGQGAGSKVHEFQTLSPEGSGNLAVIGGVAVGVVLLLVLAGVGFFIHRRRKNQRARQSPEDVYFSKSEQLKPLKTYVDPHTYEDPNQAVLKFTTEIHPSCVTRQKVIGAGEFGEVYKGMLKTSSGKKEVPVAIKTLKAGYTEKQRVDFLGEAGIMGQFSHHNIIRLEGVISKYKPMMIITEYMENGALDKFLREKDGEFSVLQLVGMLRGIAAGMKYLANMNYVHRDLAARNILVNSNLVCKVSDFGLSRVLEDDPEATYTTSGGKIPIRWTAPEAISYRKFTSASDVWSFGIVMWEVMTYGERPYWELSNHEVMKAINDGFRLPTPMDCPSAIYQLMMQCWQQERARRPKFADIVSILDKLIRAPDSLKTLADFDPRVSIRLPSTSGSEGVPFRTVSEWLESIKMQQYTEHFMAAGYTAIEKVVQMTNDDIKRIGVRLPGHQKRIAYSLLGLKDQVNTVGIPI
Assay: IHC/IF score on frozen human tumor tissue, GAC
observable: IHC score
// no unit string in output, number only

# binder, observable, reported-measurement
records = [
    ("AB-009812 (antibody, mouse IgG2a, V domains shown) VH: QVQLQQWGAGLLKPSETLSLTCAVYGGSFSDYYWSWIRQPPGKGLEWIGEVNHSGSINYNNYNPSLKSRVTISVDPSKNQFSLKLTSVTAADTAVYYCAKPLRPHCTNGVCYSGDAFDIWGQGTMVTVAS VL: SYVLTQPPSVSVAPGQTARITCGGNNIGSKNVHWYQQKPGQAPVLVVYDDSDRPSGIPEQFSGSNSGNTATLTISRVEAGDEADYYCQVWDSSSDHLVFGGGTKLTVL", "IHC score", 2),
    ("AB-009815 (antibody, mouse IgG2a, V domains shown) VH: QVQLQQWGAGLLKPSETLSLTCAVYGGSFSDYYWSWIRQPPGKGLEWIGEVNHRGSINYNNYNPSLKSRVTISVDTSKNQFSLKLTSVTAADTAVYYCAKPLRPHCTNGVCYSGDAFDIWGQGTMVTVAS VL: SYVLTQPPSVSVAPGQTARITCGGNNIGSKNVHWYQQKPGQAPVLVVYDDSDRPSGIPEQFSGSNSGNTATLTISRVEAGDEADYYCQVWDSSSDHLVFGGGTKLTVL", "IHC score", 2),
]

# input for lookup
Fill in: IHC score of AB-009816 (antibody, mouse IgG2a, V domains shown) VH: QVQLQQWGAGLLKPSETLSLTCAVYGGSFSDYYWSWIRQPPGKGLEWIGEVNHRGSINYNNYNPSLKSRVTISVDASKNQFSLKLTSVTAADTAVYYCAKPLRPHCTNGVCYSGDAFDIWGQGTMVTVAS VL: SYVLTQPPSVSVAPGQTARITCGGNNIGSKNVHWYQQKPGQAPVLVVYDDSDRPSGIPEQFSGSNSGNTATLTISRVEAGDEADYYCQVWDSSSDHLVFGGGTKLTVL is ___
2

Values were extracted from patent US20250051464A1.
